The reported measurements were obtained from PubChem BioAssay AID488890.

Test: growth inhibition of non-replicating M. tuberculosis (AID 488890);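 note: plate controls were DMSO cells for no effect and high antibiotic wells for full effect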
Settings: Mycobacterium tuberculosis non-replicating, at 25 µM, stronger effect = higher value
The whole screen tested about 320,000 compounds, of which about 1,300 (0.41%) were called active. Not shown: some 3% with an inconclusive outcome. The list is a sample of the results. Potency and affinity values are given separately.
quantity: inhibition (%)
Provide only the numeric value, understood in %.

Given O=C(c1ccco1)N1N=C(c2ccc(Br)cc2)CC1(O)C(F)(F)F (stereo unspecified) , state its recorded inhibition.
29.3

Given Cc1cc(S(=O)(=O)NCCCn2ccnc2)c(C)cc1Cl , state its recorded inhibition.
21.8

Given CC(C)CC1=NN(C(=O)c2ccncc2)C(O)(C(F)(F)F)C1 (stereo unspecified) , state its recorded inhibition.
47.5

Given CCOc1ccccc1NC(=S)N1CCC(c2nc3ccccc3o2)CC1 , state its recorded inhibition.
29.4

Given Cc1ccc(C2=NN(C(=O)c3ccco3)C(O)(C(F)(F)F)C2)cc1 (stereo unspecified) , state its recorded inhibition.
71.2

Given Cc1ccc(C(=O)N2N=C(c3ccccc3)CC2(O)C(F)(F)F)o1 (stereo unspecified) , state its recorded inhibition.
58.8

----------
Assay: growth inhibition of non-replicating M. tuberculosis (AID 488890);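 note: plate controls were DMSO cells for no effect and high antibiotic wells for full effect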
Conditions: Mycobacterium tuberculosis non-replicating, at 25 µM, stronger effect = higher value
Among all 320,000 compounds or so, about 1,300 (0.41%) were called active. About 3% were inconclusive and are not listed. Only a sample is shown. Entries with a potency or affinity are not part of this list.
Assign inhibition to each entry below.
Provide only the numeric value, understood in %.

Given O=C(N/N=C\c1ccc(OC(=O)c2ccco2)cc1)c1ccc(Cl)cc1 , state its recorded inhibition.
78.6

Given CN(C)C(=O)CSc1nnc(-c2cccnc2)n1-c1ccccc1 , state its recorded inhibition.
-19.8

Given CC1(N(O)/C=C2\C=CC=CC2=O)CCCCC1=O (stereo unspecified) , state its recorded inhibition.
3.64

Given COc1ccc(C(=O)NNC(=O)C23CC4CC(CC(C4)C2)C3)c(OC)c1 , state its recorded inhibition.
1.7

Given O=C(N/N=C\c1ccc(OC(=O)c2cccs2)cc1)c1ccc(Cl)cc1 , state its recorded inhibition.
52.2

Given Cc1ccc(CN2CCSc3ccc(C(=O)NCc4ccccn4)cc32)cc1 , state its recorded inhibition.
29.8

----------
Assign inhibition to each entry below.
Experiment: growth inhibition of non-replicating M. tuberculosis (AID 488890);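 note: plate controls were DMSO cells for no effect and high antibiotic wells for full effect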
Conditions: Mycobacterium tuberculosis non-replicating, at 25 µM, stronger effect = higher value
In all, about 320,000 compounds went through this assay and about 1,300 (0.41%) were called active. About 3% were inconclusive and are not listed. Not all results are given here. Measured potencies and affinities stand elsewhere.
Provide only the numeric value, understood in %.

Given O=C(O)c1ccc(N=N/C(=N\Nc2ccc(C(=O)O)cc2)c2ccccc2)cc1 , state its recorded inhibition.
29.9

Given Cc1ccc(C(=O)NNC(=O)CCC(=O)Nc2cc(C)on2)cc1 , state its recorded inhibition.
3.14

Given CCOC(=O)c1ccc(NC(=O)CCC(=O)OC)cc1 , state its recorded inhibition.
3.53

Given COc1ccc(OC)c(NC(=O)C2COc3ccccc3O2)c1 (stereo not drawn) , state its recorded inhibition.
30.6

Given CC(C)n1ncc(C(N)=O)c1N , state its recorded inhibition.
-11

Given O=C1c2ccccc2C(=O)N1CCC#Cc1ccc2cc(CCCO)oc(=O)c2c1 , state its recorded inhibition.
12.8

Given CC(=O)Nc1ccc(NC(=S)NC(=O)C2CCCC2)cc1 , state its recorded inhibition.
30.2

Given CC(C)(C)NC(=O)c1ccc(NC(=O)C2COc3ccccc3O2)cc1 (stereo not drawn) , state its recorded inhibition.
45.9

Given Cc1cnc(NC(=O)c2ccncc2)s1 , state its recorded inhibition.
-17.1

Given CC(=O)c1ccc(OC(=O)c2ccc(Br)o2)cc1 , state its recorded inhibition.
79.1

Given CN(C)c1ccc(NC(=O)CCCCCn2nnc3ccccc3c2=O)cc1 , state its recorded inhibition.
2.13

Given CCNc1nc(=S)nc(NC(C)C)[nH]1 , state its recorded inhibition.
-23

Given O=C(NC1CC2CCCC(C1)N2Cc1ccccc1)C1CCCCC1 (stereo not drawn) , state its recorded inhibition.
-4.43

Given CCOC(=O)N1CCN(C(=O)CN(C)S(=O)(=O)c2ccc(Cl)cc2)CC1 , state its recorded inhibition.
-17.1

Given CCOC(=O)CSc1nnc(CCc2nc3ccccc3[nH]2)n1C , state its recorded inhibition.
-4.77

Given Brc1ccc(N/N=C(/N=Nc2nn[nH]n2)c2ccccc2)cc1 , state its recorded inhibition.
76.2

Given O=C(NCCCN1CCN(CCCNC(=O)c2cccc(Cl)c2)CC1)c1cccc(Cl)c1 , state its recorded inhibition.
43.3

Given CCOc1ccc(N2CC(C(=O)NCCCc3ccccc3)CC2=O)cc1 (stereo not drawn) , state its recorded inhibition.
24.1

Given COc1ccc(CNC(=O)C2COc3ccccc3O2)cc1 (stereo not drawn) , state its recorded inhibition.
72.5

Given Cc1ccc2nc(NC(=O)COC(=O)c3ccccn3)sc2c1 , state its recorded inhibition.
76.5

Given CCOC(=O)c1ccc(S(=O)(=O)NNS(=O)(=O)c2ccc(C)cc2)cc1 , state its recorded inhibition.
3.23

Given CC1(C(=O)NC(=S)N(CCC#N)Cc2cccnc2)CC1(Cl)Cl (stereo not drawn) , state its recorded inhibition.
12.4

Given CCCC(=O)NNc1c2ccccc2nc2ccccc12 , state its recorded inhibition.
74.5

Given CCS(=O)(=O)N1N=C(c2cccc(NS(C)(=O)=O)c2)CC1c1ccccc1 (stereo not drawn) , state its recorded inhibition.
36.4

Given CC(=O)c1ccc(NC(=O)c2cc3ccccc3o2)cc1 , state its recorded inhibition.
76.8

Given CCC(=O)Nc1cccc(NC(=O)c2ccc(Br)cc2)c1 , state its recorded inhibition.
1.37

Given COC(=O)c1ccc2nccnc2c1 , state its recorded inhibition.
-20.4

Given Brc1ccccc1OCCNCc1ccccc1 , state its recorded inhibition.
32.1

Given Cc1ccc2nc(NC(=O)c3ccccc3F)sc2c1 , state its recorded inhibition.
2.6

Given CCC(C)NC(=O)/C=C/c1cccs1 (stereo not drawn) , state its recorded inhibition.
59.1

Given CCN(CC(=O)Nc1ccc(NC(C)=O)cc1)C(=O)c1cc(CN2C(=O)c3ccccc3C2=O)ccc1OC , state its recorded inhibition.
-15

Given NS(=O)(=O)c1cc(C(=O)NCCc2ccccn2)ccc1Cl , state its recorded inhibition.
7.03

Given O=c1[nH]c(-c2ccncc2)nc2ccccc12 , state its recorded inhibition.
26.6

Given COc1ccccc1-c1nc2cc(Cl)ccc2c(=O)n1O , state its recorded inhibition.
9.28

Given c1ccc(-n2cnc3cc(NCc4cccs4)ccc32)cc1 , state its recorded inhibition.
28.9

Given CCc1ccc(C(=O)COC(=O)CNC(=O)c2ccc(Br)o2)cc1 , state its recorded inhibition.
43.3

Given O=c1c2cc(Br)ccc2nc(-c2ccccc2)n1O , state its recorded inhibition.
78.6

Given c1ccc(-c2nc3ccccc3[nH]2)nc1 , state its recorded inhibition.
20.2

Given COc1ccc(NC(=O)c2cc3ccccc3o2)cc1OC , state its recorded inhibition.
53.8

Given O=C(NNc1c2ccccc2nc2ccccc12)c1ccc(O)cc1 , state its recorded inhibition.
42

Given CN1CCN(C(=O)C2CCCN(S(=O)(=O)c3ccc(Br)cc3)C2)CC1 (stereo not drawn) , state its recorded inhibition.
8.61

Given NC(=O)c1ccc(NC(=O)C2COc3ccccc3O2)cc1 (stereo not drawn) , state its recorded inhibition.
1.12

Given CC1Cc2cc(S(=O)(=O)N3CCN(c4ccccc4F)CC3)ccc2N1C(=O)C1CC1 (stereo not drawn) , state its recorded inhibition.
31.8

Given O=C(Nc1nc2ccc(F)cc2s1)Oc1ccccc1 , state its recorded inhibition.
6.26

Given C[C@]12C(=O)N(c3ccccc3)C(=O)N1[C@H]1c3ccccc3OC[C@@H]1[C@H]2c1ccccc1 , state its recorded inhibition.
79

Given CCOC(=O)NC(=O)/C(N=Nc1cccc(C(F)(F)F)c1)=C(\C)O , state its recorded inhibition.
22.5

Given Cc1ccc(C)c(OCCCNCc2ccccc2)c1 , state its recorded inhibition.
32.5

Given O=C(O)c1ccccc1-c1nc2cc(Cl)ccc2c(=O)n1O , state its recorded inhibition.
-1.37

----------
Assign inhibition to each entry below.
Assay: growth inhibition of non-replicating M. tuberculosis (AID 488890);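 note: plate controls were DMSO cells for no effect and high antibiotic wells for full effect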
Conditions: Mycobacterium tuberculosis non-replicating, at 25 µM, stronger effect = higher value
Hit rate of the full screen: of about 320,000 compounds, about 1,300 (0.41%) were called active. Roughly 3% stayed inconclusive and do not appear here. Only a sample is shown. Results with a measured potency or affinity are listed apart.

Given COc1ccc(-c2noc(CN(C)CCC3CCCCO3)n2)cc1 (stereo unspecified) , state its recorded inhibition.
17.2%

Given Cc1ccccc1C(=O)N1CCN(c2ccc(NC(=O)c3ccc([N+](=O)[O-])o3)cc2)CC1 , state its recorded inhibition.
78.2%

Given O=C(Nc1nc(-c2cccs2)cs1)c1ccco1 , state its recorded inhibition.
25.2%

Given C/C(=N\Nc1nc(-c2ccccc2O)nc2ccccc12)c1ccccc1 , state its recorded inhibition.
7.99%

Given CC(=O)Nc1nc(-c2cccs2)cs1 , state its recorded inhibition.
18.4%

Given O=C(Nc1cccc([N+](=O)[O-])c1)NC1CCS(=O)(=O)C1 (stereo unspecified) , state its recorded inhibition.
-1.42%

Given O=C(Nc1ccc(N2CCN(C(=O)c3cccs3)CC2)cc1)c1ccco1 , state its recorded inhibition.
-3.51%

Given O=C(Nc1nc2ccccc2s1)c1ccc([N+](=O)[O-])o1 , state its recorded inhibition.
64.8%

Given CCOC(=O)c1c(C)[nH]c(C)c1C(=O)CSc1nncs1 , state its recorded inhibition.
-5.38%

Given O=C(NCCC1CCCCN1S(=O)(=O)c1cccs1)C(=O)NCc1ccccc1 (stereo unspecified) , state its recorded inhibition.
10.3%

Given O=C(NCc1cccnc1)C1CCC(CNS(=O)(=O)c2cccc3nsnc23)CC1 (stereo unspecified) , state its recorded inhibition.
-1.6%
